Assay: Rat pharmacokinetics, oral AUC
Format: in vivo
Conditions: single oral dose 10 mpk, plasma
So I've got a bunch of compounds here, and I need their Rat AUC 10 mpk PO values.
Dear colleague, please send the value followed by its unit.

Previously resolved entries follow.
| Cpd smiles | Rat AUC 10 mpk PO |
| --- | --- |
| COc1ccncc1-c1ccc2cnn(-c3ccnc(N4CCOCC4)c3)c2c1 | 10 ± 2.5 µM·h |
| Cn1cc(-c2ccc3cnn(-c4ccnc(N5CCOCC5)c4)c3c2)cn1 | 2.1 ± 0.09 µM·h |
| Cn1cc(-c2ccc3cnn(-c4ccnc(N5CCN(S(C)(=O)=O)CC5)c4)c3c2)cn1 | 41 ± 26 µM·h |

We next turn to a different compound, shown below.
Input line: Look up and report measured Rat AUC 10 mpk PO for this entry: CN(C)C(=O)CN1CCN(c2cc(-n3ncc4ccc(-c5cnn(C)c5)cc43)ccn2)CC1
Output line: 1.0 ± 0.19 µM·h

---

Target: LRRK2 (G2019S mutation, GST-LRRK2 (amino acids 970-2527)) (Homo sapiens (Human), UniProt Q5S007, G2019S)
Sequence (Q5S007 970-2527 G2019S): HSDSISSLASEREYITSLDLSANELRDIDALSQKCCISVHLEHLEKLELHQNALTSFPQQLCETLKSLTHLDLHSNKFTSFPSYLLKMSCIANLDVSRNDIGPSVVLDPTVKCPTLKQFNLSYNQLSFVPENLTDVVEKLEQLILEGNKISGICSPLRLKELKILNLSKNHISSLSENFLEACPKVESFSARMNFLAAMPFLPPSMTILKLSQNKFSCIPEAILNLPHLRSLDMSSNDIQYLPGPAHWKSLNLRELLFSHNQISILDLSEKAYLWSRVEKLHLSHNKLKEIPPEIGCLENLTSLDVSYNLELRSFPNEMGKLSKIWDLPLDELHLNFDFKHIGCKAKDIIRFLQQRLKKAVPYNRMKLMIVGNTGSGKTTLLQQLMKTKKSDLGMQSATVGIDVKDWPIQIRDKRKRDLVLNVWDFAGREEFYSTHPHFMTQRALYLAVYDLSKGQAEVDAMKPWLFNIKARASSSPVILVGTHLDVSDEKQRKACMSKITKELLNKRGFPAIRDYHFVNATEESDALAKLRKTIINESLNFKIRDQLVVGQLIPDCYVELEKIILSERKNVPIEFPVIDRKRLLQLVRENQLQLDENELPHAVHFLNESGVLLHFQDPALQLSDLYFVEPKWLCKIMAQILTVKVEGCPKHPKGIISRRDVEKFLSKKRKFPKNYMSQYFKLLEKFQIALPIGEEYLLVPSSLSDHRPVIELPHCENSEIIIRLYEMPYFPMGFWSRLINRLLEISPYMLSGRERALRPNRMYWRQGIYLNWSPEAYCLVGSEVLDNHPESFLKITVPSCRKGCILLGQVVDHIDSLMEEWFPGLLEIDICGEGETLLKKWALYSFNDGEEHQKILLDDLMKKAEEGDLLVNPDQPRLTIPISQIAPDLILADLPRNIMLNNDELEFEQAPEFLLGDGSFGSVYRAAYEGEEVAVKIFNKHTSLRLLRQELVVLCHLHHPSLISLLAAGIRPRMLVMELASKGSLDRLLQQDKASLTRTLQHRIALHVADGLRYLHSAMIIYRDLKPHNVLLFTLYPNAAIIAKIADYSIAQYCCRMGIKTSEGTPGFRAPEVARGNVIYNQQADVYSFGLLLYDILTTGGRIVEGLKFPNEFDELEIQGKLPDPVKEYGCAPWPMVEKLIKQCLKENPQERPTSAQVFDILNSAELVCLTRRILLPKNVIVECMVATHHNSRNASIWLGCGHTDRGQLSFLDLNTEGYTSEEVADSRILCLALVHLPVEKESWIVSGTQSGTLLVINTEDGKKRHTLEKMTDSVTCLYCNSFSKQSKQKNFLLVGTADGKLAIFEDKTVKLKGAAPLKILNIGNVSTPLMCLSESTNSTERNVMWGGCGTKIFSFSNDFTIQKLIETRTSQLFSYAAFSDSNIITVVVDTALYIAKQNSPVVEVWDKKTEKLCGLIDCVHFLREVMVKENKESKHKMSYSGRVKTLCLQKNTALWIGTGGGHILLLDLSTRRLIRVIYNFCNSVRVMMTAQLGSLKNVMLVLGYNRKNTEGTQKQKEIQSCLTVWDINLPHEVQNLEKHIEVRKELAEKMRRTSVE
Test: LRRK2 Km ATP LanthaScreen Assay
Settings: mean IC50 of several test results
Note to self: use YES only for IC50 readings below 200 nM; a reading exactly at 200 nM still gets NO.

| Compound | Cat |
| --- | --- |
| Cn1cc(-c2ccc3cnn(-c4ccnc(N5CCn6ccnc6C5)c4)c3c2)cn1 | YES |
| CC(C)Oc1ccc2cnn(-c3ccnc(N4CCC(O)C4)c3)c2c1 (stereo not drawn) | NO |
| CC(C)Oc1ccc2cnn(-c3ccnc(N4CCN(c5ncccn5)CC4)c3)c2c1 | NO |
| COc1ccncc1-c1ccc2cnn(-c3ccnc(N4CCOCC4)c3)c2c1 | YES |
| Cn1cc(-c2ccc3cnn(-c4ccnc(N5CCC(S(C)(=O)=O)CC5)c4)c3c2)cn1 | YES |

Input line: Please indicate whether the reported IC50 of CC(C)Oc1ccc2cnn(-c3ccnc(N4CCN(CC5CCC5)CC4)c3)c2c1 is strictly below 200 nM.
Output line: NO

Input line: Problem: For the compound c1nc(N2CCOCC2)cc(-n2ncc3ccc(C4CC4)cc32)n1 , is IC50 under 200 nM?
Output line: NO

Input line: Dear reviewer, please state whether CC(C)Oc1ccc2cnn(-c3ccnc(N4CCC(O)CC4)c3)c2c1 has IC50 strictly beneath 200 nM.
Output line: NO

Input line: Quick check: does c1cc(-c2ccc3cnn(-c4cc(N5CCOCC5)ncn4)c3c2)[nH]n1 have IC50 under 200 nM?
Output line: YES

---

Assay: Rat pharmacokinetics, oral AUC
Assay type: in vivo
Conditions: 10 mg/kg, single oral dose 10 mpk, plasma
Description: Representative Example of a Pharmacokinetic Measurement The pharmacokinetics of a compound of the invention (amorphous free form) can be studied following single intravenous and/or oral administration to mouse, rat, dog and/or monkey. […] Plasma concentration-time data were analyzed by non-compartmental methods and expressed as AUC (area under the curve) values. […]
Readout type: AUC (µM·h)
Give bare numbers, in µM·h.

Each molecule below has a recorded value; state its AUC.
1. CN(C)C(=O)CN1CCN(c2cc(-n3ncc4ccc(-c5cnn(C)c5)cc43)ccn2)CC1
2. COc1ccncc1-c1ccc2cnn(-c3ccnc(N4CCOCC4)c3)c2c1
3. Cn1cc(-c2ccc3cnn(-c4ccnc(N5CC[C@@H](F)C5)c4)c3c2)cn1
4. Cn1cc(-c2ccc3cnn(-c4ccnc(N5CCOCC5)c4)c3c2)cn1
5. Cn1cc(-c2ccc3cnn(-c4ccnc(N5CCN(S(C)(=O)=O)CC5)c4)c3c2)cn1

Output line:
[1, 10, 0.82, 2.1, 41]
